- System: Mus musculus
- run description: In vivo evaluation for antimalarial activity against Plasmodium berghei in percentage when administered subcutaneously in mice (Mus musculus)
- Assay type: functional
- Design: concentration or dose not given beside the values
Activity reference
Hi! Could you send only the number? It should be in %, unit omitted.

Please review the entries below; each comes with its answer.
[[record]]
compound = "CCOC(=O)CC[C@H]1CCCCC12OOC1(CCCC[C@H]1CCC(=O)OCC)OO2 (stereo partly drawn)"
experimental_system = "Mus musculus"
result = 0

[[record]]
compound = "COC[C@H]1CCCCC12OOC1(CCCC[C@H]1COC)OO2 (stereo partly drawn)"
experimental_system = "Mus musculus"
result = 100

[[record]]
compound = "C=CC[C@@H]1CCCCC12OOC1(CCCC[C@@H]1CC=C)OO2 (stereo partly drawn)"
experimental_system = "Mus musculus"
result = 15


Note: attention shifts to another entry.
Given item c1ccc(COC[C@H]2CCCCC23OOC2(CCCC[C@H]2COCc2ccccc2)OO3)cc1 (stereo partly drawn) , the value recorded as its Activity is 0
